Would you kindly list Activity for each of these compounds?
# System: SW48
# procedure-summary: Cell cycle arrest in SW48 cells by accumulation at S phase at 100 uM after 72 hrs
# Type: functional, Homo sapiens
Just the number please, in %, no unit attached.

Kindly note the recorded Activity for `COC(=O)c1cc(OC)c2[nH]c3ccccc3c2c1` , which is 14.1

Kindly note the recorded Activity for `COC(=O)c1cc(O)c2[nH]c3ncccc3c2c1` , which is 18.9

Kindly note the recorded Activity for `COC(=O)c1cc(O)c2[nH]c3ccccc3c2c1` , which is 12.5

Kindly note the recorded Activity for `COc1cc(CO)cc2c1[nH]c1ncccc12` , which is 9.7

Kindly note the recorded Activity for `COC(=O)c1cc(OC)c2[nH]c3ncccc3c2c1` , which is 23

---

# procedure-summary: Antiproliferative activity against human Mes-sa cells after 72 hrs
# Assay type: functional, cell-based
recorded-endpoint: IC50 (µM)
Just the number please, in µM, no unit attached.

Kindly note the recorded IC50 for `COC(=O)c1cc(OC)c2[nH]c3ccccc3c2c1` , which is 80

Kindly note the recorded IC50 for `COC(=O)c1cc(O)c2[nH]c3ncccc3c2c1` , which is 16

Kindly note the recorded IC50 for `COc1cc(CO)cc2c1[nH]c1ncccc12` , which is 65

Kindly note the recorded IC50 for `COC(=O)c1cc(OC)c2[nH]c3ncccc3c2c1` , which is 144

Kindly note the recorded IC50 for `COC(=O)c1cc(O)c2[nH]c3ccccc3c2c1` , which is 35

---

# System: HCT-116
# procedure-summary: Cell cycle arrest in HCT116 cells by accumulation at G2/M phase at 100 uM after 72 hrs
# Format: functional, Homo sapiens
# strict inequality: Activity < 20% yields yes, everything else yields no

Challenge: Is 20% strictly greater than the compound's reported Activity? compound: `COC(=O)c1cc(O)c2[nH]c3ccccc3c2c1`
Response given: no

Challenge: Is 20% strictly greater than the compound's reported Activity? compound: `COC(=O)c1cc(OC)c2[nH]c3ccccc3c2c1`
Response given: yes

Challenge: Is 20% strictly greater than the compound's reported Activity? compound: `COC(=O)c1cc(OC)c2[nH]c3ncccc3c2c1`
Response given: yes

Challenge: Is 20% strictly greater than the compound's reported Activity? compound: `COC(=O)c1cc(O)c2[nH]c3ncccc3c2c1`
Response given: yes

Challenge: Is 20% strictly greater than the compound's reported Activity? compound: `COc1cc(CO)cc2c1[nH]c1ncccc12`
Response given: no

---

# Test system: SW480
# procedure-summary: Cell cycle arrest in SW480 cells by accumulation at G2/M phase at 100 uM after 72 hrs
# Type: functional, Homo sapiens
Would you kindly list Activity for each of these compounds?
Just the number please, in %, no unit attached.

Kindly note the recorded Activity for `COC(=O)c1cc(OC)c2[nH]c3ncccc3c2c1` , which is 11.9

Kindly note the recorded Activity for COC(=O)c1cc(OC)c2[nH]c3ccccc3c2c1 [MUKONINE] , which is 10.3

Kindly note the recorded Activity for `COC(=O)c1cc(O)c2[nH]c3ncccc3c2c1` , which is 14.7

Kindly note the recorded Activity for `COc1cc(CO)cc2c1[nH]c1ncccc12` , which is 14.7

Kindly note the recorded Activity for COC(=O)c1cc(O)c2[nH]c3ccccc3c2c1 [CLAUSINE E] , which is 25.7
